- Test system: MIA-PaCa pancreatic cancer cells (expressing mutated Ki-ras gene)
- test_protocol: Antiproliferative activity on human tumoral cells, WST-1 assay, MIA PaCa-2
- Format: cell-based
- condition_description: MIA PaCa-2 cells, 96 hrs treatment, 0 to 100 μM, WST-1, compared to control cells
Consider the following molecules; for each one, report its concentration range of test compound required to inhibit proliferation, MIA PaCa-2.

QUERY: Would you kindly share the measured concentration range of test compound required to inhibit proliferation, MIA PaCa-2 for "COc1ccccc1-c1cn2c(n1)[C@H](C(C)(C)C)N(C(=O)[C@@H](N)CS)CC2" ?
RESULT: 25 to 50 µM

QUERY: Same again, this time with "COc1ccccc1-c1cn2c(n1)[C@H](C(C)(C)C)N(C(=O)[C@@H](N)CSSC[C@H](N)C(=O)N1CCn3cc(-c4ccccc4OC)nc3[C@@H]1C(C)(C)C)CC2"
RESULT: 12.5 to 25 µM

QUERY: Continue with "CCCC[C@H]1c2nc(-c3ccccc3OC)cn2CCN1C(=O)[C@@H](N)CS"
RESULT: 12.5 to 25 µM

QUERY: Request: CCC(C)[C@H]1c2nc(-c3ccccc3OCc3ccccc3)cn2CCN1C(=O)[C@@H](N)CS (stereo partly shown)
RESULT: 6.25 to 12.5 µM

QUERY: Would you kindly repeat that for "COc1ccccc1-c1cn2c(n1)[C@H](CC1CCCCC1)N(C(=O)[C@@H](N)CS)CC2" ?
RESULT: 6.25 to 12.5 µM

QUERY: Moving on to the next molecule: "CCCC[C@H]1c2nc(-c3c(O)cccc3OC)cn2CCN1C(=O)[C@@H](N)CS"
RESULT: 6.25 to 12.5 µM

QUERY: Same thing, different molecule: CCC(C)[C@H]1c2nc(-c3ccccc3OC)cn2CCN1C(=O)[C@@H](N)CSSC[C@H](N)C(=O)N1CCn2cc(-c3ccccc3OC)nc2[C@@H]1C(C)CC (stereo partly shown)
RESULT: 12.5 µM
